- System: MDA-MB-435
- procedure-summary: NCI tumour cell line growth inhibition, 48 h
Consider the following compounds and their measured TGI readings.
readout-type: TGI

• COC(=O)c1cc2oc(/C=C3/SC(=S)N(N)C3=O)cc2n1Cc1ccccc1 = > 41.5 µM
• Cc1cnc2oc3ccc(O)cc3c2c1-c1ccccc1 = > 100 µM
• CC12CCC(=O)N1c1cncnc1N2 (centres undefined) = > 10 µM
• COc1ccc2[nH]c3c(c2c1)CC(=O)N1CCCC(CC3O)C1 (centres undefined) = > 100 µM
• N#CC1=C2SCCN2C(=O)C(C#N)C12CCCCC2 (centres undefined) = > 100 µM
• O=c1cnnc(N/N=C/c2ccccc2O)[nH]1 = > 100 µM
• COC(=O)c1cc(=O)n(-c2ccc3nn(C)nc3c2)cc1C(=O)OC = > 100 µM
• CSc1nn(C)cc2ncnc1-2 = > 100 µM
• CCOC(=O)c1ccc(C(=O)n2ccnc2)[nH]1 = > 100 µM
• O=C1CSC(c2ccccc2)N1c1ccc(-n2c(-c3ccccc3)nc3ccccc3c2=O)cc1 (centres undefined) = > 100 µM
• Oc1ccc2ccccc2c1N=Nc1cc(Cl)ccc1Cl = > 50 µM
• CC(=O)NC(Cc1ccccc1)NC(=O)O (centres undefined) = > 100 µM
• CNC1c2ccccc2C(=O)c2cc3c(cc21)OCCOCCOCCOCCO3 (centres undefined) = > 100 µM
• COc1cc([N+](=O)[O-])c(OC)cc1-c1nc2sc(C)cn2c1/C(N)=N/C(=N)N = > 100 µM
• Cc1ccc(C=C2C(Cl)=C(Cl)C(Cl)=C2Cl)cc1 = 1.6 µM
• Cn1cc(-c2nc(-c3c[nH]c4ncccc34)cs2)c2ccccc21 = 30 µM
• CC(=O)CC/C=C(\C)[C@H](O)[C@H](C)C(=O)O[C@H]1C[C@H](C)C=C2C=C[C@@]3(C)O[C@@H](O)CC(=O)[C@]3(C)[C@H]21 = 2.09 µM
• N#CC1=C(N)NC(=S)NC12Nc1ccccc1S2 (centres undefined) = 47.6 µM
• C=C1C(=O)O[C@@H]2/C=C(\C)CC/C=C(\C)CC[C@@]12O = 7.29 µM
• NC(=S)N/N=C1\c2ccccc2-c2c(F)c(F)c(F)c(F)c21 = 20.6 µM
• O=C(Cc1ccccc1)NN1C(=O)/C(=C\c2cccc([N+](=O)[O-])c2)SC1=Nc1ccccc1 = > 100 µM
• O=C(O)C1(Cc2ccccc2)Cc2cc3c(cc2C1)CCC3 = > 100 µM
• Cc1cc(C)nc(NS(=O)(=O)c2ccc(Nc3c4ccccc4nc4c(C(=O)NC(CO)(CO)CO)cccc34)cc2)n1 = 51.6 µM
• CCOC(=O)CC1(Cc2ccc(OCc3ccccc3)cc2)C(=O)OC(c2ccccc2)N1C(=O)c1ccccc1 (centres undefined) = > 100 µM
• COC(=O)c1ccccc1CC1Cc2cc3c(cc2C1=O)CCC3 (centres undefined) = 10.7 µM
• COC(=O)c1ccc(/C=C(\c2ccc([N+](=O)[O-])o2)S(=O)(=O)c2ccc(NC(C)=O)cc2)o1 = 12.8 µM
• CC(C)(C)c1cc(/C=N/NC(=O)c2ccccc2NC(=O)c2cccs2)c(O)c(C(C)(C)C)c1 = 77.7 µM
• O=C(C=P(c1ccccc1)(c1ccccc1)c1ccccc1)CCl = 2.34 µM
• O=C(O)c1ccc(C(O)(c2ccccc2)c2ccccc2)cc1 = > 100 µM
• O=C1C=CC(=C(c2ccccc2)c2ccc(O)cc2)C=C1 = 32.5 µM
• O=c1cc(NNCc2ccccc2)[nH]c(=O)[nH]1 = > 100 µM
• COc1ccc(C2CC(c3ccc(Nc4ccnc5cc(Cl)ccc45)cc3)=NN2C=O)cc1 (centres undefined) = 5.22 µM
• Oc1c(Cl)cc(Cl)cc1/C=N/Nc1nnc(N/N=C/c2cc(Cl)cc(Cl)c2O)c2ccccc12 = > 30.9 µM
• CC(C)(C)C1CCC2c3c([nH]c4ccccc34)C3C(=O)N(c4ccccc4Cl)C(=O)C3C2C1 (centres undefined) = > 100 µM

Source of measurements: PubChem BioAssay (NCI)
